Examples of binders with documented EC50 follow.
TESTED_ON: SARS2 S1
QUANTITY_MEASURED: EC50 (nM)

1) WNbFc 2 (Fc fusion) QVQLQESGGGLVQPGGSLRLSCAVSGFTLDYYAIGWFRQAPGKEREGVSCISSSGGNTKYADSVKGRFTASRDNAKNTFYLQMNSLKPEDTAVYYCAAIAATYYSGSYYFQCPHDGMDYWGKGTQVTVSS    1.17
2) WNbFc 15 (Fc fusion) QVQLQESGGGLVQPGGSLRLSCAASGFTFSSYLMGWFRQVPGKGLEWVSGIYSDGGTYYADSVKGRFTISRDNAKNTVYLQMNSLKPEDTAVYYCATDRMEGSSWPERDFGSWGQGTQVTVSS    1.6
3) WNbFc 7 (Fc fusion) QVQLQESGGGLVQPGGSLRLSCAAPGFTFSSYAMGWFRQVPGKGLEWVSGIYSDGSTYYADSVKGRFTISRDNAKNTVYLQMNSLKPEDTAVYYCAKDRLEGSSWPERDFGSWGQGTQVTVSS    0.46
4) WNbFc 36 (Fc fusion) QVQLQESGGGLVQPGGSLRLSCAVSGFTLDYYAIGWFRQAPGKEREGVSCISNSGGNTKYADSVKGRFTTSVDNAQNTVYLLMNSLEPEDTAVYYCAAIAATYYSGTYYYQCPHYGMDYWGKGTQVTVSS    0.63
